These entries and their values trace back to ChEMBL document CHEMBL3301448.

- Test system: Toxoplasma gondii
- measurementProtocol: MMV: A total of 100ul of inoculum was added to each well (parasite/cell ratio, ~10:1; final volume, 200 ul). Six hours after inoculation, nonadherent parasites were removed, and 100 ul of complete DMEM (1% penicillin-streptomycin, 3% FBS) supplemented with inhibitors at different concentrations (2-fold serial dilutions starting from 30 uM) was added to all except the negative-control wells. Positive controls, consisting of pyrimethamine (PYR) and sulfadiazine (SDZ) (20-mg/ml stocks in DMSO), were tested at a 2mg/ml final concentration. Each test was performed in triplicate.
- Type: functional, organism-based
- runConditions: 6 h
pIC50: −log10 of the molar value.
quantity: pIC50

| compound | pIC50 |
| --- | --- |
| CCOc1ccc(N2C(N)=NC(N)=NC2(C)C)cc1 | < 4.52 |
| COc1ccc2c(c1)C1(Nc3ccccc3-c3nc4ccccc4n31)C(=O)N2 (stereo not given) | < 4.52 |

Each compound below has a reported value. Please supply its pIC50.
1. CCC(O)c1ccc(Br)cc1NC(=O)c1cccc(Cl)c1 (stereo not given)
2. CCN1CCN(c2c(C(=O)c3ccccc3)cnc3cc(OC)c(OC)cc23)CC1
3. CC(C)(C)C(=O)Nc1ccc(C(=O)Nc2cccc(-c3nc4ccccc4[nH]3)c2)cc1
4. COc1ccc(CCNC(=O)c2cc(S(=O)(=O)N3CC(C)CC(C)C3)ccc2Sc2ccc(F)cc2)cc1OC (stereo not given)

Resp:
1. < 4.52
2. < 4.52
3. < 4.52
4. < 4.52

Each compound below has a reported value. Please supply its pIC50.
1. COc1ccc(C2NCCc3c2[nH]c2ccccc32)cc1CN1CCN(c2ccc(F)cc2)CC1 (stereo not given)
2. CCn1nc(-c2ccc(C(=O)OC)cc2)nc2c(=O)n(C)c(=O)nc1-2
3. COc1ccc(/C=C2/SC(=Nc3ccccc3)NC2=O)cc1
4. O=c1nc(C=Cc2ccc(Cl)cc2)oc2ccccc12

Resp:
< 4.52
< 4.52
< 4.52
< 4.52

----------
Can you tell me IC50 for the items I'm about to list?
- System: Toxoplasma gondii
- measurementProtocol: MMV: A total of 100ul of inoculum was added to each well (parasite/cell ratio, ~10:1; final volume, 200 ul). Six hours after inoculation, nonadherent parasites were removed, and 100 ul of complete DMEM (1% penicillin-streptomycin, 3% FBS) supplemented with inhibitors at different concentrations (2-fold serial dilutions starting from 30 uM) was added to all except the negative-control wells. Positive controls, consisting of pyrimethamine (PYR) and sulfadiazine (SDZ) (20-mg/ml stocks in DMSO), were tested at a 2mg/ml final concentration. Each test was performed in triplicate.
- Type: functional, organism-based
- runConditions: 6 h

| compound | IC50 |
| --- | --- |
| Cc1ccc(C2CC(C(F)(F)F)n3nc(C(=O)N4CCN(C(c5ccccc5)c5ccccc5)CC4)cc3N2)cc1 (stereo unspecified) | > 30 µM |
| c1ccc(Cn2c(N=Nc3c(Nc4ccccc4)ccc4ccccc34)nc3ccccc32)cc1 | 13.5 µM |
| COc1cccc(C(=O)NC(c2ccc(C)cc2)c2cc(Cl)c3cccnc3c2O)c1 (stereo unspecified) | > 30 µM |
| COc1cc(C(=O)Nc2ccc(-c3nc4ccccc4[nH]3)cc2)cc(OC)c1OC | > 30 µM |
| C[n+]1c2ccccc2nc2ccc(NCCO)cc21 | > 30 µM |

Each compound below has a reported value. Please supply its IC50.
1. O=C(Nc1ccc(Br)cc1)Nc1cccc(Cl)c1
2. O=C(Nc1nc(-c2ccccn2)cs1)c1ccccc1Br
3. CCOc1ccccc1CN1CCc2nc3cc(C(C)(C)C)nn3c(O)c2C1
4. COc1ccc(C(O)(CCC(C)C)C(CN2CCOCC2)c2ccc(Cl)cc2)cc1 (stereo unspecified)

Resp:
1. > 30 µM
2. > 30 µM
3. > 30 µM
4. > 30 µM

Each compound below has a reported value. Please supply its IC50.
1. CCCCCCc1cc2cc(-c3csc(C=Cc4ccccc4)n3)c(=O)oc2cc1O
2. COc1ccc(CCn2c(=N)c(C(=O)NCc3cccnc3)cc3c(=O)n4cccc(C)c4nc32)cc1
3. Oc1c(C(Nc2ccccn2)c2cccc(Oc3ccccc3)c2)ccc2cccnc12 (stereo unspecified)
4. Oc1ccc(Br)cc1CN1CCN(Cc2ccc(Cl)cc2)CC1

Resp:
1. > 30 µM
2. > 30 µM
3. > 30 µM
4. 14.5 µM

Each compound below has a reported value. Please supply its IC50.
1. O=C(CCl)NCCOc1ccc(Cl)cc1Cl
2. Cc1cc(C)c2nc(N3CCC(C(=O)NCCCN4CCC(N5CCCCC5)CC4)CC3)sc2c1
3. c1ccc2c(NCCc3c[nH]c4ccccc34)c3ccccc3nc2c1
4. CCOc1cc(Cl)c(C(C)NC(=O)c2cccc(OC)c2)cc1OCC (stereo unspecified)
5. CC(=O)NCCc1nc2ccccc2n1Cc1ccc(C(C)C)cc1

Resp:
> 30 µM
> 30 µM
3.05 µM
> 30 µM
> 30 µM
